The reported measurements were obtained from patent US20180127503A1.

measured target: T1, human ROR2 expressed on the cell surface (human, UniProt Q01974 34-943)
T1 construct: Endogenous ROR2 of human tumour cell lines; also called cell surface ROR2; ROR2 on tumour cell lines
T1 sequence (Q01974 34-943 limits assumed): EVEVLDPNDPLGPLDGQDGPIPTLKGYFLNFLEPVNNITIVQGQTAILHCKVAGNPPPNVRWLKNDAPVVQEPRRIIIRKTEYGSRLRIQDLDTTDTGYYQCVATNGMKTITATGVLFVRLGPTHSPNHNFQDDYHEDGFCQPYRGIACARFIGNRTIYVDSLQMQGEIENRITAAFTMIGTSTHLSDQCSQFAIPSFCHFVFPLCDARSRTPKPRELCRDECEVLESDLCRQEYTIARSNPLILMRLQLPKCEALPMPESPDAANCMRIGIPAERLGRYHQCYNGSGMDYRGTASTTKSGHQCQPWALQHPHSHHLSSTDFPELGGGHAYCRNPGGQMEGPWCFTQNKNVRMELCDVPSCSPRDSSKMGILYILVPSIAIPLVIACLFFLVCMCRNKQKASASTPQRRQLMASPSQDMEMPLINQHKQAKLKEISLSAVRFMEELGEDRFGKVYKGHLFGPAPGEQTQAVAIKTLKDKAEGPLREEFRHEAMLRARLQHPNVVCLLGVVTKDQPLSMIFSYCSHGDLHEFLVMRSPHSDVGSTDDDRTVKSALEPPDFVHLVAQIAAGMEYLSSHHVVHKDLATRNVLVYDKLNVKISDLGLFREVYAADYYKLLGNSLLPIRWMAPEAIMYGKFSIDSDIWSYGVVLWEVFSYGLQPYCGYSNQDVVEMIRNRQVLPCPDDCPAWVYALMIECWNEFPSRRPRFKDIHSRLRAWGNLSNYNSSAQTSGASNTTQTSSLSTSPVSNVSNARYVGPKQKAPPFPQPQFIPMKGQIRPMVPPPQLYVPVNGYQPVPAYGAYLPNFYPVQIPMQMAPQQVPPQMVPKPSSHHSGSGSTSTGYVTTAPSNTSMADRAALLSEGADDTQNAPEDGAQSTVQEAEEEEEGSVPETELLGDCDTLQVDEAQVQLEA
measurement notes: flow cytometry, U251 LUC cells (glioma)
Parameters: unit not given here
observation type: binding intensity

binder="ROR2-27 full length human IgG1 antibody (antibody, V domains shown, also called clone #27; clone #027 IgG1) VH: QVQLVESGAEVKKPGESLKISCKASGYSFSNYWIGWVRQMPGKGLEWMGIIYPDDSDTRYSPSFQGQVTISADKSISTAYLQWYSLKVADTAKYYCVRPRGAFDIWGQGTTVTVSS VL: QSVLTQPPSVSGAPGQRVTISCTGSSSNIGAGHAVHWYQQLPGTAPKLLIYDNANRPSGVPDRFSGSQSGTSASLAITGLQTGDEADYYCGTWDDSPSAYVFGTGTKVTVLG" observation_type="binding intensity" readout_number=9
